For each entry below, report its growth value.
Tested on: SF-295 CNS
Assay: NCI-60 one-dose screen, 48 h (100 = growth as untreated, 0 = no growth, -100 = all killed)
Details: 10 µM
Compounds without any hit were thinned out: in the full panel of roughly 83,000, 20% have a hit. Active and inactive are the calls of the source. Rule for the calls: active = growth percent below 10; inactive = the rest.

Please state, for each entry, its recorded growth.
1. NS(=O)(=O)c1ccc(Br)cc1
2. CN(C)CCCOc1ccccc1NC1=C(Cl)C(=O)C(Nc2ccccc2OCCCN(C)C)=C(Cl)C1=O
3. CN(C)CCCN1c2ccccc2CCc2ccc(Cl)cc21
4. CC1/C=C/C=C/C=C/C=C/C=C/C=C/C=C/C(O[C@@H]2O[C@H](C)[C@H](O)[C@@H](O)[C@@H]2N)CC(O)C(C(=O)O)C(O)CC(=O)CC(O)CC(O)CC(O)CC(=O)CCCC(=O)CC(=O)OC1C(C)CC(C)C(O)CC(=O)c1ccc(N)cc1 (stereo partly drawn)
5. CCCc1nc(C(C)(C)O)c(C(=O)O)n1Cc1ccc(-c2ccccc2-c2nn[nH]n2)cc1
6. CCN1C(=O)CC(SC2CC(=O)N(CC)C2=O)C1=O (stereo not drawn)

["88.3% (inactive)", "-58.8% (active)", "75.6% (inactive)", "-95.3% (active)", "95.3% (inactive)", "106% (inactive)"]

---

Tested on: UACC-62 melanoma
Test: NCI-60 one-dose screen, 48 h (100 = growth as untreated, 0 = no growth, -100 = all killed)
Details: 10 µM
This is part of a sample that, as a whole, favours compounds with a hit. Of some 83,000 tested, about 20% had one in any assay.
For each entry below, report its growth value.
Give bare numbers, in %.

Observe how each entry below is paired with its result.
INSERT INTO measurements (compound, assayed_target, numeric_value) VALUES
  ('CCOC(=O)CSc1nc(-c2cc(OC)ccc2OC)cc(-c2ccc(OC)cc2)c1C#N', 'UACC-62 melanoma', 71),
  ('O=C(CCCSc1nc(-c2ccccc2)cc(-c2ccc(Cl)cc2)n1)NO', 'UACC-62 melanoma', -15.3),
  ('N#Cc1cnn(C(=O)c2nn(-c3ccc(Cl)cc3)cc2O)c1N', 'UACC-62 melanoma', 5.76),
  ('COc1cc(-c2nn(-c3cccc(NC(=O)CCNc4ccc(N5CCOCC5)cc4)c3)cc2-c2ccncc2)ccc1Cl', 'UACC-62 melanoma', 13.9),
  ('CS(=O)(=O)c1nccc(-c2c(-c3cccc(OCc4ccccc4)c3)nc3sccn23)n1', 'UACC-62 melanoma', 62.4);

Please state, for each entry, its recorded growth.
1. CC(CN(C)C)Oc1ccc(OC(C)CN(C)C)c2c1C(=O)c1ccccc1C2=O (centres undefined)
2. Cc1ccc(NCCNCC(C)(C)O)c2c(=O)c3ccc(Cl)cc3sc12
3. COc1cc(-c2nc3ccccc3o2)cc(CN2CCCCC2)c1O
4. O=C(CCCSc1nc(-c2ccc(Cl)cc2)cc(-c2ccc(Cl)cc2)n1)NO

[68, -66.6, -15.3, -10.7]

---

Tested on: MALME-3M melanoma
Experiment: NCI-60 one-dose screen, 48 h (100 = growth as untreated, 0 = no growth, -100 = all killed)
Settings: 10 µM
Procedure: Cells are grown in 96 well plates and exposed to the test compound for 48 hours. Compounds are tested at a single concentration, which is 10^-5 M for most compounds. The reported endpoint is percent growth (GI% or GIPRCNT), where numbers from 0 - 100% represent growth inhibition, and numbers from -100% - 0 represent cell death. For example, a value of 40 represents 60% growth inhibition. A value of 0 means no net growth occurred over the course of the experiment. […]
This is part of a sample that, as a whole, favours compounds with a hit. Of some 83,000 tested, about 20% had one in any assay.
For each entry below, report its growth value.
Answers are plain numbers, in %.

INSERT INTO assay_data (compound, measure_name, units, numeric_value) VALUES
  ('CC(C)C[C@H](NC(=O)Cn1cccc(CNC(=O)c2ccccc2)c1=O)B(O)O', 'growth', '%', -35.3),
  ('COc1cc(C2CC(c3cc(Cl)c(C)cc3O)=NN2c2ccc(S(N)(=O)=O)cc2)cc(OC)c1OC (stereo unspecified)', 'growth', '%', 31.9);

Please state, for each entry, its recorded growth.
1. CCC(c1ccc(OC)cc1)C(CC)c1ccc(O)c(CN2CCN(C)CC2)c1 (stereo unspecified)
2. Cc1n[nH]c(C)c1N=Nc1cccc2c1C(=O)c1ccccc1C2=O
3. COc1ccc(-c2cc(-c3ccccc3)nc(SCCCC(=O)NO)n2)cc1

1. 6.2
2. 124
3. -9.2

Please state, for each entry, its recorded growth.
1. NS(=O)(=O)Oc1ccc2c(ccn2C(=O)C23CC4CC(CC(C4)C2)C3)c1
2. Brc1ccc2c(c1)-c1ccccc1C1=NCCN12
3. COc1cc(-c2nn(-c3ccc(NC(=O)NCCNS(=O)(=O)c4ccc(F)cc4)cc3)cc2-c2ccncc2)ccc1Cl
4. C=CCn1c(SCC(=O)Nc2ccc(C(=O)/C=C/c3cc(OC)c(OC)c(OC)c3)cc2)nnc1-c1cc(-c2ccc(Cl)cc2)nc2ccccc12
5. CNC(=O)c1c(I)c(NC(C)=O)c(I)c(C(=O)O)c1I

115
-31.5
24.8
97.8
112

Please state, for each entry, its recorded growth.
1. O=C(N/N=C/c1cc([N+](=O)[O-])ccc1O)c1cccc2ccccc12
2. Cc1[nH]c2ccccc2c1/C=N/Nc1ncnc2sc3c(c12)CCN(CC(=O)OC(C)(C)C)C3

[53.7, 120]
